- System: Escherichia coli
- ASSAY_COMMENT: Antibacterial activity against Escherichia coli MTCC 42 after 24 hrs by serial dilution method
- Type: functional
RESULT_TYPE: -logMIC
The reply should be a number, written without any unit.

Sample answers from the record:
Cc1ccc(C2Sc3cc(Cl)ccc3N=C3c4ccccc4C(c4ccccc4)C32)cc1 (stereo not given) = 1.86
COc1ccc2c(c1)SC(c1ccc(Cl)cc1)C1C(=N2)c2ccccc2C1c1ccccc1 (stereo not given) = 1.57
Clc1ccc(C2Sc3cc(Cl)ccc3N=C3c4ccccc4C(c4ccccc4)C32)cc1 (stereo not given) = 1.88
c1ccc(C2Sc3ccccc3N=C3c4ccccc4C(c4ccccc4)C32)cc1 (stereo not given) = 0.91
Cc1ccc2c(c1)SC(c1ccc(Cl)cc1)C1C(=N2)c2ccccc2C1c1ccccc1 (stereo not given) = 1.56

Quote -logMIC reported for COc1ccc2c(c1)SC(c1ccc(C)cc1)C1C(=N2)c2ccccc2C1c1ccccc1 (stereo not given) please.
1.55

Quote -logMIC reported for Cc1ccc(C2Sc3ccccc3N=C3c4ccccc4C(c4ccccc4)C32)cc1 (stereo not given) please.
0.92

Quote -logMIC reported for COc1ccc(C2Sc3ccccc3N=C3c4ccccc4C(c4ccccc4)C32)cc1 (stereo not given) please.
0.94

Quote -logMIC reported for COc1ccc(C2Sc3cc(OC)ccc3N=C3c4ccccc4C(c4ccccc4)C32)cc1 (stereo not given) please.
1.57

Quote -logMIC reported for Cc1ccc(C2Sc3cc(C)ccc3N=C3c4ccccc4C(c4ccccc4)C32)cc1 (stereo not given) please.
1.24

All values here come from ChEMBL document CHEMBL2203136.
